Molecular target: Acid ceramidase (Homo sapiens, UniProt Q13510)
Sequence (Q13510 22-142 limits assumed): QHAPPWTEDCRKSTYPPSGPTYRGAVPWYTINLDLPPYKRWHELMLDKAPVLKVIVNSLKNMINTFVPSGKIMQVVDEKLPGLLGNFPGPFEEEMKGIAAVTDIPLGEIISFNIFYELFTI
Sequence (Q13510 143-395 limits assumed): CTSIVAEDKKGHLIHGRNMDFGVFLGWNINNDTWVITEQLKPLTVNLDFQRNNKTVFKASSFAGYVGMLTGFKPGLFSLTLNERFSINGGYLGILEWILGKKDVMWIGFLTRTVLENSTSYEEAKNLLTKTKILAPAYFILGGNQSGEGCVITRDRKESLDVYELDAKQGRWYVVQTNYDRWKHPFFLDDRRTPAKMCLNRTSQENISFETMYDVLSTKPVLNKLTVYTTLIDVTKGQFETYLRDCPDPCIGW
Assay: Affinity Biochemical interaction: (inhibition of substrate hydrolysis determined through mass spectrometry) EUB0002527a ASAH1
Assay type: functional
Design: mode of action Inhibitor, recommended concentration 1 uM
quantity.measured: IC50
Value and unit, in that order.

Problem: Query (compound): `CCCCCCNC(=O)n1cc(F)c(=O)[nH]c1=O` ; field requested: IC50
Solution: 29 nM

====

Molecular target: cAMP and cAMP-inhibited cGMP 3',5'-cyclic phosphodiesterase 10A (Homo sapiens, UniProt Q9Y233)
Sequence (Q9Y233 whole entry): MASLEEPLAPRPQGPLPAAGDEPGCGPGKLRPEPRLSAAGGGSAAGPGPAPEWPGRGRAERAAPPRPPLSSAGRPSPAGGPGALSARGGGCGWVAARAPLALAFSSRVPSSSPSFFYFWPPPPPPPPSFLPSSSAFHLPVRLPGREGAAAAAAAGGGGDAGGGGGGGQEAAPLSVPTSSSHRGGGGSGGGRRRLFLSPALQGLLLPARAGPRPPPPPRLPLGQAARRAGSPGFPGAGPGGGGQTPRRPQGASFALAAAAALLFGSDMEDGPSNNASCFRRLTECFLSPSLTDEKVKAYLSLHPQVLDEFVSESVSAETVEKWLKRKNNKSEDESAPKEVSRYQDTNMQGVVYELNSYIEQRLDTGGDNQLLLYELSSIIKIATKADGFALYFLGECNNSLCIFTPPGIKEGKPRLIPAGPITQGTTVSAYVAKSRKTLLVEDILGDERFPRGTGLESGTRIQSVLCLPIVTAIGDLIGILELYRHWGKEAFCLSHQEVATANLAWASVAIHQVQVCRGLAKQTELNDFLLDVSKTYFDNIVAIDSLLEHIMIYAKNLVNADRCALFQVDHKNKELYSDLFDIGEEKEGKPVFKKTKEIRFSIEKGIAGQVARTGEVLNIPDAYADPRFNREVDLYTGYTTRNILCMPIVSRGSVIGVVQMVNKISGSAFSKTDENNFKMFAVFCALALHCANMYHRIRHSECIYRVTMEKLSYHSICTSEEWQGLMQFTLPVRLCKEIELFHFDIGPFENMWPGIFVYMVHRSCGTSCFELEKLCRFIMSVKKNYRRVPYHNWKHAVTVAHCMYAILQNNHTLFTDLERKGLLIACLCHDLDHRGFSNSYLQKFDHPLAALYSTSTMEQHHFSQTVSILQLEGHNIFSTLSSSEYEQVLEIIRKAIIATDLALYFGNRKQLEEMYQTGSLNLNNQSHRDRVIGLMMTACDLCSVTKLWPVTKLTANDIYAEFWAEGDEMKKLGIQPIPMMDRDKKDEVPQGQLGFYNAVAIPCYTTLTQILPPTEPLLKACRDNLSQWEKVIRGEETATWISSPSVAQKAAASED
Assay: Affinity Biochemical interaction: (inhibition of enzyme activity in cleaving radiolabelled substrate [3H]cAMP) EUB0002682aCl PDE10A
Assay type: functional
Parameters: mode of action Inhibitor, recommended concentration 1 uM
quantity.measured: IC50 (nM)
# value in nM; strip the unit string

Problem: Which IC50 value is on record for `Cc1ccc2c(c1)nc(/C=C/c1cccc3cccnc13)n2-c1cccc(OCCCN2CCN(C)CC2)c1` ?
Solution: 2.8
